- System: HOP-92
- method_description: NCI tumour cell line growth inhibition, 48 h
Active and inactive are the calls of the source. No stated cut-off is given here; in the data, active = GI50 up to about 1.1 µM and inactive = higher.
observation_type: GI50

Query :: Given the compound CN1C(=O)C(=CNc2ccccc2[N+](=O)[O-])C(=O)N(C)C1=O , what is its reported GI50?
Result :: > 100 µM (inactive)

Query :: // returns reported GI50 for input CCC1(CC)C(=O)CC[C@@]2(C)C1=CC[C@H]1[C@@H]3CC[C@H](O)[C@@]3(C)CC[C@@H]12
Result :: 37.5 µM (inactive)

Query :: Recorded GI50 for COc1cc2oc(-c3ccc(O)cc3)c(OC3OC(C)C(O)C(O)C3O)c(=O)c2c(O)c1OC (stereo not given) , please?
Result :: > 100 µM (inactive)

Query :: Look up GI50: Cc1cn(CCCCCOC(=O)NC(CCCNC(=N)N)C(=O)O)c(=O)[nH]c1=O (stereo not given)
Result :: > 100 µM (inactive)

Query :: Entry C=C[C@@]1(C)CC(=O)[C@]2(O)[C@@]3(C)[C@@H](OC(C)=O)CCC(C)(C)[C@@H]3[C@H](O)[C@H](OC(C)=O)[C@@]2(C)O1 : reported GI50 = ?
Result :: > 100 µM (inactive)

Query :: Name the recorded GI50 for C#CCNCC(=O)O .
Result :: > 100 µM (inactive)

Query :: May I ask what GI50 has been recorded for CCCCCCCCCCCCCCCCOCC(CC(F)(F)P(=O)(O)O)OC(C)=O (stereo not given) ?
Result :: > 50 µM (inactive)

Query :: Form field: reported GI50 of CCc1cc(CCC(=O)Nc2ccccc2[N+](=O)[O-])nc(S)n1
Result :: > 100 µM (inactive)

Query :: Record request: GI50 value, item O=C1CCSC(=S)N1c1ccc(Br)c(Cl)c1
Result :: 25.4 µM (inactive)

Query :: Need GI50, item O=c1cc(NNc2cccc(Cl)c2)[nH]c(=O)[nH]1
Result :: 18.5 µM (inactive)

----------
- Tested on: OVCAR-3
- method_description: NCI tumour cell line growth inhibition, 48 h
Calls of active or inactive are those of the source. Rule as the data show it: active = GI50 up to about 1.1 µM and inactive = higher.
observation_type: GI50

Query :: # get_value(readout='GI50', item= O=C(c1ccc2ccccc2c1)N(Cc1cccnc1)C(=S)N(Cc1cccnc1)C(=O)c1ccc2ccccc2c1 )
Result :: 20.5 µM (inactive)

Query :: Requested field: GI50. Item: S=C1N(/N=C/c2c3ccccc3cc3ccccc23)C(=N\c2ccccc2)/C(=N/c2ccccc2)N1c1ccccc1
Result :: > 100 µM (inactive)

Query :: Fill in the blank: the reported GI50 of C[n+]1[se]c2ccccc2c1Cl is ____.
Result :: 27 µM (inactive)

Query :: Any idea what GI50 was measured for CC=C/C=C/[C@@H]1O[C@](O)([C@H](CC)C(=O)NC/C=C/C=C(\C)[C@@H](OC)[C@@H](C)[C@@H]2O[C@H](/C=C/C=C/C=C(\C)C(=O)c3c(O)cc[nH]c3=O)[C@H](O)[C@@H]2O)[C@H](O)[C@H](O)C1(C)C ?
Result :: > 100 µM (inactive)

Query :: I would be grateful if you could share the reported GI50 for CC(=O)N1C(c2[nH]c3ccccc3c2Cc2ccccc2)CCN1c1ccccc1 (configuration not stated) .
Result :: > 10 µM (inactive)

Query :: Reported GI50 for CCOC(=N)CC(=O)c1ccccc1 : what is it?
Result :: > 100 µM (inactive)

Query :: Fill blank: measured GI50 of the compound C=C(COC(C)=O)CC(/C=C(\C)CCC=C(C)C)OC(C)=O (configuration not stated) is ____.
Result :: > 100 µM (inactive)

Query :: For the compound shown here, Cc1cc(C)c2c(c1)Nc1ccccc1P2c1ccccc1 (configuration not stated) , give the reported GI50.
Result :: 24.6 µM (inactive)

Query :: Which GI50 is reported for this compound? O=C(NCCOC(=O)OCCNC(=O)NC1CCCCC1)NC1CCCCC1
Result :: > 100 µM (inactive)

Query :: Please give the measured GI50 for this compound: Cc1cc(O)c2c(c1O)C(=O)C13C(=C(O)C4C(O)C1C1C(O)C3C(O)=C3C(=O)c5c(O)cc(C)c(O)c5C(=O)C341)C2=O (configuration not stated)
Result :: 3.56 µM (inactive)

Query :: Item Cc1ccc(S(=O)(=O)N(CCN2C(=O)c3ccccc3C2=O)c2cc3c4c(c2)Oc2cc(N(CCN5C(=O)c6ccccc6C5=O)S(=O)(=O)c5ccc(C)cc5)cc5c2C4(C)c2c(cc(N(CCN4C(=O)c6ccccc6C4=O)S(=O)(=O)c4ccc(C)cc4)cc2O5)O3)cc1 has what recorded GI50?
Result :: > 100 µM (inactive)

Query :: // returns reported GI50 for input Brc1ccc(C2CC3(c4ccccc4)ON=C(c4ccccc4)N3c3ccccc3S2)cc1 (configuration not stated)
Result :: > 100 µM (inactive)

Query :: GI50 lookup needed for O=c1cc2oc3ccc4ccccc4c3cc-2c(=O)[nH]1 , thanks.
Result :: 11.4 µM (inactive)

Query :: # input compound: CSCC1CC(c2ccc(Cl)cc2)=NO1 (configuration not stated) ; wanted: its GI50
Result :: > 100 µM (inactive)

Query :: Record request: GI50 value, item CN(C)c1nc2n(CCO)c(-c3ccccc3)c(-c3ccccc3)nc-2c(=O)n1
Result :: > 100 µM (inactive)

Query :: Data request, read-out GI50, for O=C(c1ccc2ccccc2c1)C1(I)S(=O)(=O)OCCOS1(=O)=O
Result :: > 100 µM (inactive)

Query :: If you can, please state the reported GI50 value of C=CCC1(C(=O)OC(C)(C)C)C(OC)=C(C(=O)OC(C)(C)C)C2C1C(C(=O)OC(C)(C)C)=C(OC)C2(CC=C)C(=O)OC(C)(C)C (configuration not stated) .
Result :: > 100 µM (inactive)

All values here come from ChEMBL document CHEMBL1201862.
